Reference for the values: PubChem BioAssay

- TESTED ON: Streptavidin (Streptomyces avidinii)
- ASSAY TEXT: streptavidin binders on small-molecule microarray, primary screen, artefact control for SMM compound annotation, biophysical, 635/667 nm fluorescence (AID 1147);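 note: signal reflects streptavidin binding to arrayed compounds as a control protein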
- COND: streptavidin binding, higher = more signal
OUTCOME MEASURE: composite z-score
The reply should be a number, written without any unit.

Examples with answers:
MOLECULE	composite z-score
COCC1=C([C@H](O)CCc2ccccc2)[C@H](CO)n2c(=O)n(-c3ccccc3)c(=O)n2C1	-0.101
C=CCC(OC(C)=O)[C@@H]1[C@@H](N(Cc2ccc(-c3cccc(C(F)(F)F)c3)o2)C(=O)Cc2ccc(OC)cc2)c2cc(OCCCO)ccc2N1C(=O)c1ccc2ccccc2n1 (some centres not stated)	-0.356

input: What composite z-score value was documented for this molecule, CC(=O)NCCCC[C@@H]1NC(=O)[C@H]2C[C@@H](C(=O)NCCCCCC[N+](C)(C)C)[C@@H](c3ccc(O)cc3)N2C1=O ?
output: -0.448

input: What composite z-score value was documented for this molecule, CO[C@H]1O[C@H](CO)[C@@H](OC(=O)Nc2ccc(C(F)(F)F)cc2)[C@H](OC(=O)Nc2ccccc2-c2ccccc2)[C@H]1OC(=O)Nc1ccccc1-c1ccccc1 ?
output: 0.967

input: What composite z-score value was documented for this molecule, COC(=O)C(CC#Cc1ccc2c(c1)[C@]1(C(=O)N2)[C@H](c2ccc(O)cc2)N2[C@H](c3ccccc3)[C@H](c3ccccc3)OC(=O)[C@H]2[C@@H]1C(=O)N1CCc2cc(OC)c(OC)cc2C1)C(=O)OC ?
output: 0.455

input: What composite z-score value was documented for this molecule, CO[C@H]1O[C@H](CO)[C@@H](OC(=O)Nc2ccc3c(c2)OCO3)[C@@H]2OC(=O)[C@@H](Cc3ccccc3)C/C=C/C[C@H](Cc3ccccc3)C(=O)O[C@@H]12 ?
output: 0.294

input: What composite z-score value was documented for this molecule, CCCCCCCCCCC(O)C1C=CC2C(=O)N(C)C(=O)C2N1N1CCCCC1 (configuration not stated) ?
output: -0.862

input: What composite z-score value was documented for this molecule, [N-]=[N+]=NCc1ccccc1C[C@]1(C(=O)O)COC(c2ccc(OCCCO)cc2)=N1 ?
output: -0.878

input: What composite z-score value was documented for this molecule, COc1ccc(CC[C@H](O)c2cccc(OCC(=O)OC(C)(C)C)c2)cc1 ?
output: 1.77

input: What composite z-score value was documented for this molecule, COc1ccc([Si](C)(C)[C@H]2[C@H](CCO)O[C@@]3(C(=O)N(Cc4ccccc4)c4ccc(N(C=O)c5ccccc5)cc43)[C@@H]2C)cc1 ?
output: 0.593

input: What composite z-score value was documented for this molecule, Cc1ccc(S(=O)(=O)N2[C@@H](c3ccccc3)C(C(=O)O)=CC[C@H]2c2ccc(C#N)cc2)cc1 ?
output: 0.0546

input: What composite z-score value was documented for this molecule, CC(c1ccccc1)C(O)C1C=CC2C(=O)N(c3ccccc3)C(=O)C2N1Nc1ccc(C#N)cc1 (configuration not stated) ?
output: 0.17
